assay_procedure: Antioxidant activity assessed as DPPH radical scavenging activity incubated for 30 mins by spectrophotometric analysis
Assay type: functional
Recorded IC50, one value per entry.
Express the result in µM but write the number alone.

>  <molecule>
COc1ccc(CCc2cc(OC)c(O)c(OC)c2)cc1OC

>  <parameter>
IC50

>  <numeric_value>
14

$$$$

Query block: What value of IC50 has been reported for the following molecule? COc1cc(O)cc(CCc2ccc(O)c(OC)c2)c1 [GIGANTOL]
Result block: 17.7

Query block: Try the molecule COc1ccc(CCc2cc(OC)c(O)c3c2C(Cc2ccc(O)cc2)c2cc(O)c(O)c(OC)c2O3)cc1 (stereo not drawn)
Result block: 32.4

* * *

Recorded pIC50 values (Tyrosine-protein phosphatase non-receptor type 1 (Homo sapiens, UniProt P18031)) are given below.
Expect pIC50 as a plain number equal to -log10 of the molar concentration.

>  <molecule>
COc1cc(CCc2cc(O)cc(O)c2)ccc1O [TRISTIN]

>  <study_target>
Tyrosine-protein phosphatase non-receptor type 1 (Homo sapiens, UniProt P18031)
Sequence (P18031 whole entry): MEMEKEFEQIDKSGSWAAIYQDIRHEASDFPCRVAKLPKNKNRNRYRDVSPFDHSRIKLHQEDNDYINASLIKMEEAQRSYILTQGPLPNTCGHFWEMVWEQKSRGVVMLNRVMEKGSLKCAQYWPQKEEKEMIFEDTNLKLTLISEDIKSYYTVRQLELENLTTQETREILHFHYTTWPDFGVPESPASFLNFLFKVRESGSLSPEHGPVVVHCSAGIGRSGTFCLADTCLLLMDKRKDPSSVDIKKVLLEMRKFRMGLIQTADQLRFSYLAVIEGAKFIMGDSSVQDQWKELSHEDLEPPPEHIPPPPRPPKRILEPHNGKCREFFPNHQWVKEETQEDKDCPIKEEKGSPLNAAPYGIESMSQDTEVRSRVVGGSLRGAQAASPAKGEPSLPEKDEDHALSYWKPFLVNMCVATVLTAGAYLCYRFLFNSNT

>  <numeric_value>
4.67

$$$$

In the following, a different molecule is considered.
Query block: What value of pIC50 has been reported for the following molecule? COc1cc(O)cc(CCc2ccc(O)c(OC)c2)c1 [GIGANTOL]
Result block: 4.13

* * *

Test system: MDA-MB-231
assay_procedure: Cytotoxicity against human MDA-MB-231 cells assessed as cell viability incubated for 72 hrs by MTT assay
Format: functional, cell-based
condition_description: MDA-MB-231, 72 h
Recorded pIC50, one value per entry.
Expect pIC50 as a plain number equal to -log10 of the molar concentration.

>  <molecule>
COc1ccc(CCc2cc(OC)c3c(c2)O[C@H](c2cc(O)c(O)c(OC)c2)[C@@H](c2ccc(OC)cc2)O3)cc1

>  <parameter>
pIC50

>  <numeric_value>
4.37

$$$$
>  <molecule>
COc1ccc(CCc2cc(O)c(O)c(OC)c2)cc1

>  <parameter>
pIC50

>  <numeric_value>
4.09

$$$$

In the following, a different molecule is considered.
Query block: What value of pIC50 has been reported for the following molecule? COc1ccc(CC2c3cc(O)c(O)c(OC)c3Oc3cc(O)c4c(c32)CCc2cc(O)ccc2-4)cc1 (stereo not drawn)
Result block: 4.60

* * *

Tested on: NCI-H292
assay_procedure: Anti-cancer activity against human NCI-H292 cells
Type: functional, cell-based
parameter: pIC50
Expect pIC50 as a plain number equal to -log10 of the molar concentration.

>  <smiles_str>
COc1cc(CCc2cc(O)c(O)c(OC)c2)ccc1O

>  <pIC50>
4.02

$$$$

In the following, a different molecule is considered.
Query block: Field: pIC50 (NCI-H292). Entry: COc1cc(CCc2ccc(O)cc2)cc(OC)c1O
Result block: 3.70

* * *

Test system: FaDu
assay_procedure: Cytotoxicity against human FaDu cells assessed as cell viability incubated for 24 hrs by CCK-8 assay
Assay type: functional, cell-based
parameter: pIC50
Expect pIC50 as a plain number equal to -log10 of the molar concentration.

Query block: What value of pIC50 has been reported for the following compound? COc1cc(CCc2cc(OC)c(O)c(OC)c2)ccc1O
Result block: 5.59

* * *

assay_procedure: Permeability of the compound by PAMPA-BBB assay
Format: ADME
condition_description: read-out: permeability
Recorded Papp, one value per entry.
Express the result in ×10⁻⁶ cm/s but write the number alone.

Sample answers from the record:
>  <smiles_str>
COc1ccc(CCc2cc(OC)c(O)c(OC)c2)cc1OC

>  <Papp (×10⁻⁶ cm/s)>
4.1

$$$$
>  <smiles_str>
COc1ccc(CCc2cc(OC)c(OC(=O)c3ccc(Cl)cc3)c(OC)c2)cc1OC

>  <Papp (×10⁻⁶ cm/s)>
6.2

$$$$
>  <smiles_str>
COc1ccc(CCc2cc(OC)c(OC3CCCC3)c(OC)c2)cc1OC

>  <Papp (×10⁻⁶ cm/s)>
7.6

$$$$

Query block: What value of Papp has been reported for the following compound? COc1ccc(CCc2cc(OC)c(OC(=O)c3ccccc3)c(OC)c2)cc1OC
Result block: 6.9

Query block: Try the compound COc1ccc(CCc2cc(OC)c(OCc3ccccc3)c(OC)c2)cc1OC
Result block: 8.2

* * *

Recorded pIC50, one value per entry.
study_target: Aldo-keto reductase family 1 member B1 (Homo sapiens)
Expect pIC50 as a plain number equal to -log10 of the molar concentration.

Sample answers from the record:
>  <smiles_str>
COc1cccc(CCc2ccc(O)c(O)c2)c1O

>  <pIC50>
3.90

$$$$
>  <smiles_str>
Oc1cc(O)cc(CCc2ccc(F)cc2)c1

>  <pIC50>
3.25

$$$$
>  <smiles_str>
COc1cc(CCc2ccc(O)c(O)c2)cc(OC)c1O

>  <pIC50>
4.75

$$$$

In the following, a different molecule is considered.
Query block: What value of pIC50 has been reported for the following molecule? Oc1ccc(CCc2cc(Cl)ccc2O)cc1O
Result block: 4.66
